Test system: ECLC5B cells
Assay Notes: Growth inhibition (alamarBlue, 96 h)
Type: cell-based, human
Measurement Context: Homo sapiens, read-out: IC50 for Inhibition of Growth (95% CI); ECLC5B, alamarBlue, 96 h
pIC50: −log10 of the molar value.
Readout Name: pIC50

COc1cc2c(Nc3ccc(Br)cc3F)ncnc2cc1OCC1CCN(C)CC1 | 6.61

====

Assay Notes: Pharmacokinetic analysis of vepafestinib in rats (microdialysis PFC, CSF, plasma)
Assay type: in vivo, male Han Wistar rats
Measurement Context: male, Han Wistar, rat, plasma (total), oral, 3 mg/kg; 120 min; individual rats; read-out: Concentration in Rats, Plasma (total)
Readout Name: concentration at 120 min (µM)

COCc1ccc(NC(=O)c2c(C#CCN3CCOCC3)n(C3(C)CC3)c3ncnc(N)c23)cc1 | 0.845

====

Assay Notes: in vivo
Measurement Context: male, BALB/c, mouse, brain and plasma, po, 50 mg/kg, Kp,uu,brain (unbound brain/plasma concentration ratio), male BALB/c mice, 50 mg per kg oral, 0.5 h or 1 h
Readout Name: Kp uu

C[C@H]1CNC(=O)c2cnn3cc4c(nc23)N(Cc2cc(F)cnc2O1)[C@@H]1CCC[C@@H]1O4 | 0.077

====

Target Or Test System: KIF5B–RET G810D (Homo sapiens, UniProt P07949, G810D)
Construct: Fusion of the RET kinase domain with several N-terminal partners such as kinesin family 5B (KIF5B); KIF5B (N-terminal fusion partner)
Assay Notes: In-cell western assay of RET autophosphorylation
Measurement Context: Jump-In GripTite HEK293 cells, one hour; Mean
pIC50: −log10 of the molar value.
Readout Name: pIC50

C[C@H]1CNC(=O)c2cnn3cc4c(nc23)N(Cc2cc(F)cnc2O1)[C@@H]1CCC[C@@H]1O4 | 7.24

====

Assay Notes: in vivo
Measurement Context: male, BALB/c, mouse, in vivo, po, 50 mg/kg
Readout Name: Kp uu

COCc1ccc(NC(=O)c2c(C#CCN3CCOCC3)n(C3(C)CC3)c3ncnc(N)c23)cc1 | 1.3

====

Target Or Test System: KIF5B–RET Y806C (Homo sapiens, UniProt P07949, Y806C)
Construct: Fusion of the RET kinase domain with several N-terminal partners such as kinesin family 5B (KIF5B); KIF5B (N-terminal fusion partner)
Sequence (P07949 713-1063 Y806C limits assumed): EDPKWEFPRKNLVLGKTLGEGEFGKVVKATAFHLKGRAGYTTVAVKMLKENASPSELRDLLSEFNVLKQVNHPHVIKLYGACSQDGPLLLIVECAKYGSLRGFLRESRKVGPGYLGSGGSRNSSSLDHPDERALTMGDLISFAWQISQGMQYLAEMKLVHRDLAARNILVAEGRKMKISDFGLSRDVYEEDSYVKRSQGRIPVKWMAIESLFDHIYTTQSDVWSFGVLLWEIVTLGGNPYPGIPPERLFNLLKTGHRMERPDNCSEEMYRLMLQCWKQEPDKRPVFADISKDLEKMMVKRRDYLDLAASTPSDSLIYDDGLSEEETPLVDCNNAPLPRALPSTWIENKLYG
Assay Notes: In-cell western assay of RET autophosphorylation
Measurement Context: Jump-In GripTite HEK293 cells, one hour; Mean
Readout Name: IC50

C[C@H]1CNC(=O)c2cnn3cc4c(nc23)N(Cc2cc(F)cnc2O1)[C@@H]1CCC[C@@H]1O4 [TPX-0046] | 50 nM

====

Assay Notes: in vivo
Measurement Context: male, BALB/c, mouse, in vivo, po, 50 mg/kg
Readout Name: Kp

COCc1ccc(NC(=O)c2c(C#CCN3CCOCC3)n(C3(C)CC3)c3ncnc(N)c23)cc1 [Vepafestinib] | 1.8

====

Assay Notes: Pharmacokinetic analysis of vepafestinib in rats (microdialysis PFC, CSF, plasma)
Format: in vivo, male Han Wistar rats
Measurement Context: male, Han Wistar, rat, prefrontal cortex microdialysate, oral, 3 mg/kg; 120 min; individual rats; read-out: Concentration in Rats, Prefrontal cortex
Readout Name: concentration at 120 min (nM)

COCc1ccc(NC(=O)c2c(C#CCN3CCOCC3)n(C3(C)CC3)c3ncnc(N)c23)cc1 | 129

====

Assay Notes: Pharmacokinetic analysis of vepafestinib in rats (microdialysis PFC, CSF, plasma)
Assay type: in vivo, male Han Wistar rats
Measurement Context: male, Han Wistar, rat, plasma (total), oral, 10 mg/kg; 480 min; individual rats; read-out: Concentration in Rats, Plasma (total)
Readout Name: concentration at 480 min (nM)

COCc1ccc(NC(=O)c2c(C#CCN3CCOCC3)n(C3(C)CC3)c3ncnc(N)c23)cc1 | 102

====

Assay Notes: Pharmacokinetic analysis of vepafestinib in rats (microdialysis PFC, CSF, plasma)
Type: in vivo, male Han Wistar rats
Measurement Context: male, Han Wistar, rat, prefrontal cortex microdialysate, oral, 50 mg/kg; 1500 min; individual rats; read-out: Concentration in Rats, Prefrontal cortex
Readout Name: concentration at 1500 min (nM)

COCc1ccc(NC(=O)c2c(C#CCN3CCOCC3)n(C3(C)CC3)c3ncnc(N)c23)cc1 | 71.6

====

Assay Notes: Pharmacokinetic analysis of vepafestinib in rats (microdialysis PFC, CSF, plasma)
Type: in vivo, male Han Wistar rats
Measurement Context: male, Han Wistar, rat, plasma (total), oral, 10 mg/kg; 180 min; individual rats; read-out: Concentration in Rats, Plasma (total)
Readout Name: concentration at 180 min (nM)

COCc1ccc(NC(=O)c2c(C#CCN3CCOCC3)n(C3(C)CC3)c3ncnc(N)c23)cc1 | 1780

====

Assay Notes: Pharmacokinetic analysis of vepafestinib in rats (microdialysis PFC, CSF, plasma)
Type: in vivo, male Han Wistar rats
Measurement Context: male, Han Wistar, rat, prefrontal cortex microdialysate, oral, 10 mg/kg; 180 min; individual rats; read-out: Concentration in Rats, Prefrontal cortex
Readout Name: concentration at 180 min (nM)

COCc1ccc(NC(=O)c2c(C#CCN3CCOCC3)n(C3(C)CC3)c3ncnc(N)c23)cc1 | 259

====

Assay Notes: Pharmacokinetic analysis of vepafestinib in rats (microdialysis PFC, CSF, plasma)
Format: in vivo, male Han Wistar rats
Measurement Context: male, Han Wistar, rat, plasma (total), oral, 10 mg/kg; 60 min; individual rats; read-out: Concentration in Rats, Plasma (total)
Readout Name: concentration at 60 min (µM)

COCc1ccc(NC(=O)c2c(C#CCN3CCOCC3)n(C3(C)CC3)c3ncnc(N)c23)cc1 [Vepafestinib] | 6.65

====

Target Or Test System: KIF5B–RET L730Q (Homo sapiens, UniProt P07949, L730Q)
Construct: Fusion of the RET kinase domain with several N-terminal partners such as kinesin family 5B (KIF5B); KIF5B (N-terminal fusion partner)
Assay Notes: In-cell western assay of RET autophosphorylation
Measurement Context: Jump-In GripTite HEK293 cells, one hour; Mean
pIC50: −log10 of the molar value.
Readout Name: pIC50

C[C@H]1CNC(=O)c2cnn3cc4c(nc23)N(Cc2cc(F)cnc2O1)[C@@H]1CCC[C@@H]1O4 | 7.78

====

Target Or Test System: KIF5B–RET G810R (Homo sapiens, UniProt P07949, G810R)
Construct: Fusion of the RET kinase domain with several N-terminal partners such as kinesin family 5B (KIF5B); KIF5B (N-terminal fusion partner)
Assay Notes: In-cell western assay of RET autophosphorylation
Measurement Context: Jump-In GripTite HEK293, 1 h, phospho-RET (Y905)/RET
Readout Name: IC50

C[C@H]1CNC(=O)c2cnn3cc4c(nc23)N(Cc2cc(F)cnc2O1)[C@@H]1CCC[C@@H]1O4 | 108 nM

====

Target Or Test System: KIF5B–RET E768Q (Homo sapiens, UniProt P07949, E768Q)
Construct: Fusion of the RET kinase domain with several N-terminal partners such as kinesin family 5B (KIF5B); KIF5B (N-terminal fusion partner)
Assay Notes: In-cell western assay of RET autophosphorylation
Measurement Context: Jump-In GripTite HEK293 cells, one hour; Mean
Readout Name: IC50 (nM)

C[C@H]1CNC(=O)c2cnn3cc4c(nc23)N(Cc2cc(F)cnc2O1)[C@@H]1CCC[C@@H]1O4 | 4.05

====

Assay Notes: Pharmacokinetic analysis of vepafestinib in rats (microdialysis PFC, CSF, plasma)
Format: in vivo, male Han Wistar rats
Measurement Context: male, Han Wistar, rat, cerebrospinal fluid, oral, 50 mg/kg, rats; 50 mg/kg; 480 min; individual animals; read-out: Concentration in Cerebrospinal fluid
Readout Name: concentration at 480 min

COCc1ccc(NC(=O)c2c(C#CCN3CCOCC3)n(C3(C)CC3)c3ncnc(N)c23)cc1 [Vepafestinib] | 430 nM

====

Target Or Test System: KIF5B–RET L730R (Homo sapiens, UniProt P07949, L730R)
Construct: Fusion of the RET kinase domain with several N-terminal partners such as kinesin family 5B (KIF5B); KIF5B (N-terminal fusion partner)
Assay Notes: In-cell western assay of RET autophosphorylation
Measurement Context: Jump-In GripTite HEK293 cells, one hour; Mean
pIC50: −log10 of the molar value.
Readout Name: pIC50

C[C@H]1CNC(=O)c2cnn3cc4c(nc23)N(Cc2cc(F)cnc2O1)[C@@H]1CCC[C@@H]1O4 | 8.35
